Source listed as ChEMBL document CHEMBL1158462.

Tested on: NCI-H157
Test method notes: Antitumor activity against human NCI-H157 cells by MTT assay
Assay type: functional, cell-based
pIC50: −log10 of the molar value.
Let's look at some compounds and their measured pIC50.
Measured endpoint: pIC50

Molecule smiles: c1ccc(C(CCNCCCNCCCCNCCCNCCC(c2ccccc2)c2ccccc2)c2ccccc2)cc1
Observed result: 5.42

Molecule smiles: CCCCNCCCCNCCCCNCCCNCC
Observed result: 5.66

Molecule smiles: CCNCCCNCCCNCCCNCC1CCCCCC1
Observed result: 6.15

Molecule smiles: c1ccc(C(CCNCCCCNCCCNCCC(c2ccccc2)c2ccccc2)c2ccccc2)cc1
Observed result: 5.34

Molecule smiles: CCNCCCNCCCNCCCNCC(CC)CC
Observed result: 6.10

Molecule smiles: C(CCCNCCCNCC1CCCCCC1)CCCNCCCNCC1CCCCCC1
Observed result: 5.54

* * *

Tested on: NCI-H157
Test method notes: Antitumor activity against human NCI-H157 cells by MTT assay
Format: functional, cell-based
IC50 less than 4000 nM is satisfied; IC50 greater than or equal to 4000 nM is not satisfied.

Compound: CCNCCCNCCCNCCCNC(C)CC (centres undefined)
Category label: satisfied
//
Compound: CCNCCCNCCCNCCCNCCC(C)C
Category label: satisfied
//
Compound: C=C(C)CNCCCNCCCNCCCNCC
Category label: satisfied
//
Compound: c1ccc(-c2ccccc2CNCCCNCCCNCCCNCc2ccccc2-c2ccccc2)cc1
Category label: not satisfied
//
Compound: CC(C)(C)c1ccc(CNCCCNCCCNCCCNCc2ccc(C(C)(C)C)cc2)cc1
Category label: not satisfied
//
Compound: CCNCCCNCCCNCCCNCC1CC1
Category label: satisfied
//
Compound: CC1(C)C2CCC(CNCCCNCCCNCCCNCC3CCC4CCC3C4(C)C)C1CC2 (centres undefined)
Category label: satisfied
//
Compound: CCNCCCNCCCNCCCNC[C@H](C)CO
Category label: satisfied
//
Compound: CCNCCCNCCCNCCCNC[C@@H](C)CC
Category label: satisfied
//
Compound: CCSCCNCCCNCCCNCCCNCCSCC
Category label: satisfied
//
Compound: FC(F)(F)Sc1ccc(CNCCCNCCCNCCCNCc2ccc(SC(F)(F)F)cc2)cc1
Category label: satisfied
//
Compound: CC(C)c1ccc(CNCCCCNCCCNCc2ccc(C(C)C)cc2)cc1
Category label: not satisfied
//
Compound: CCNCCCNCCCNCCCNCCSCC
Category label: satisfied
//
Compound: CCNCCCNCCCNCCCNCCSc1ccccc1
Category label: satisfied
//
Compound: c1ccc(CCc2ccccc2CNCCCCNCCCNCc2ccccc2CCc2ccccc2)cc1
Category label: not satisfied
//
Compound: CCNCCCNCCCNCCCNC(C)C
Category label: satisfied
//
Compound: CCNCCCNCCCCNCCCNCCC(C)C
Category label: satisfied
//
Compound: CCNCCCNCCCCNCCCNCC(CC)CC
Category label: satisfied
//
Compound: CCNCCCNCCCCNCCCNCCC(C)(C)C
Category label: satisfied

* * *

Test system: HT-29
Test method notes: Antitumor activity against human HT-29 cells
Format: functional, cell-based
Measured endpoint: IC50

Compound: CCNCCCNC/C=C\CNCCCNCC
Observed result: 250 nM

Compound: CCNCCCNCC#CCNCCCNCC
Observed result: > 30000 nM

Compound: CCNCCCNCC1CCC1CNCCCNCC (stereo unspecified)
Observed result: ≥ 100 nM

Compound: CCNCCCNCc1ccccc1CNCCCNCC
Observed result: > 30000 nM

Compound: CCNCCCNCC1CC1CNCCCNCC (stereo unspecified)
Observed result: ≥ 300 nM

Compound: CCNCCCCNC[C@@H]1C[C@H]1NCCCCNCC
Observed result: 250 nM

* * *

Test system: A549
Test method notes: Antitumor activity against human A549 cells
Format: functional, cell-based

Compound: CCNCCCNCC1CCC1CNCCCNCC (centres undefined)
Assay target: A549
Comparison sign: ≥
IC50 (µM): 0.1

Compound: CCNCCCCNC[C@@H]1C[C@H]1NCCCCNCC
Assay target: A549
Comparison sign: =
IC50 (µM): 0.25

Compound: CCNCCCNC/C=C\CNCCCNCC
Assay target: A549
Comparison sign: =
IC50 (µM): 0.25

Compound: CCNCCCNCC1CC1CNCCCNCC (centres undefined)
Assay target: A549
Comparison sign: ≥
IC50 (µM): 0.3

Compound: CCNCCCNCC#CCNCCCNCC
Assay target: A549
Comparison sign: >
IC50 (µM): 30

Compound: CCNCCCNCc1ccccc1CNCCCNCC
Assay target: A549
Comparison sign: >
IC50 (µM): 30

Compound: CCNCCCNCCCCNCCCNCCC(C)(C)C
Assay target: A549
Comparison sign: =
IC50 (µM): 0.9

Compound: CCNCCCNCCCNCCCNC(C)CC (centres undefined)
Assay target: A549
Comparison sign: =
IC50 (µM): 0.8

Compound: CCNCCCNCCCNCCCNC[C@H](C)CO
Assay target: A549
Comparison sign: =
IC50 (µM): 0.7

* * *

System: Malme-3M
Test method notes: Antitumor activity against human MALME-3M cells
Assay type: functional, cell-based

Compound: CCNCCCNCCCNCCCNCC [BIS(ETHYL)NORSPERMINE]
Result unit: µM
IC50: 0.2

Compound: CCNCCCCNCCCCNCCCCNCC
Result unit: µM
IC50: 1

Compound: CC(C)NCCCNCCCCNCCCNC(C)C
Result unit: µM
IC50: 3

* * *

Let's look at some compounds and their measured inhibition.
Assay target: Histone deacetylase (Homo sapiens) (UniProt Q13547+O15379+Q9UBN7+Q92769+Q9UQL6+Q8WUI4+Q9BY41+Q96DB2+P56524+Q9UKV0+Q969S8)
Condition: HeLa, at 5 µM
Description: Inhibition of HDAC from human HeLa cells assessed as of histone H3 acetylation at 5 uM

Molecule smiles: CC(=O)C(=O)NCCCCCC(=O)NCCCNCCCCNCCC(c1ccccc1)c1ccccc1
Result unit: %
inhibition: 30.2
--
Molecule smiles: Nc1ccccc1NC(=O)c1ccc(CNC(=O)CCCCC(=O)NCCCNCCCCNCCC(c2ccccc2)c2ccccc2)cc1
Result unit: %
inhibition: 48.4
--
Molecule smiles: Nc1ccccc1NC(=O)c1ccc(CNC(=O)CCCCC(=O)NCCCNCCCCNCc2ccccc2-c2ccccc2)cc1
Result unit: %
inhibition: 60.1
--
Molecule smiles: Nc1ccccc1NC(=O)c1ccc(CNC(=O)CCCCCCCCC(=O)NCCCNCCCCNCCC(c2ccccc2)c2ccccc2)cc1
Result unit: %
inhibition: 42.9
--
Molecule smiles: Nc1ccccc1NC(=O)c1ccc(CNC(=O)CCCCCCCC(=O)NCCCNCCCCNCCC(c2ccccc2)c2ccccc2)cc1
Result unit: %
inhibition: 47
--
Molecule smiles: Cc1cccc(NC(=O)c2ccc(CNC(=O)CCCCCCC(=O)NCCCNCCCCNCCC(c3ccccc3)c3ccccc3)cc2)c1
Result unit: %
inhibition: 42.6
--
Molecule smiles: Cc1ccc(CNCCCCNC(=O)CCCCCC(=O)NCc2ccc(C(=O)Nc3ccccc3N)cc2)cc1
Result unit: %
inhibition: 48.1
--
Molecule smiles: CC(C)(C)c1ccc(CNCCCCNC(=O)CCCCCCC(=O)c2ncco2)cc1
Result unit: %
inhibition: 43.7
--
Molecule smiles: O=C(CCCCCCC(=O)NCc1ccc(C(=O)O)cc1)NCCCNCCCCNCC(c1ccccc1)c1ccccc1
Result unit: %
inhibition: 72.6

* * *

Tested on: MCF7
Test method notes: cells
Format: functional, cell-based
Condition: Homo sapiens
Description: Antitumor activity against human MCF7 cells
Let's look at some molecules and their measured IC50.
Measured endpoint: IC50

Molecule: Nc1ccccc1NC(=O)c1ccc(CNC(=O)CCCCCCC(=O)NCCCNCCCCNCCC(c2ccccc2)c2ccccc2)cc1
Observed result: > 30 µM
--
Molecule: CC(=O)C(=O)NCCCCCC(=O)NCCCNCCCCNCCC(c1ccccc1)c1ccccc1
Observed result: > 30 µM
--
Molecule: CCNCCCNCC#CCNCCCNCC
Observed result: > 30 µM
--
Molecule: CCNCCCNCC1CC1CNCCCNCC (stereo not given)
Observed result: ≥ 0.3 µM
--
Molecule: Cc1ccc(CNCCCCNC(=O)CCCCCC(=O)NCc2ccc(C(=O)Nc3ccccc3N)cc2)cc1
Observed result: 0.9 µM

* * *

System: DU-145
Test method notes: Antitumor activity against human DU145 cells
Format: functional, cell-based
pIC50: −log10 of the molar value.

Compound: CCNCCCCNCCCCNCCCCNCCCCNCC
Comparison sign: =
pIC50: 7.00
--
Compound: CCNC[C@H]1C[C@@H]1CNCCCCNC[C@H]1C[C@@H]1CNCC
Comparison sign: =
pIC50: 7.22
--
Compound: CCNCCCNCC1CC1CNCCCNCC (stereo not drawn)
Comparison sign: ≤
pIC50: 6.52
--
Compound: CCNCCCCNCCCCNCCCCNC/C=C/CNCCCCNCCCCNCCCCNCC
Comparison sign: =
pIC50: 6.89
--
Compound: CCNCCCCNC[C@@H]1C[C@H]1NCCCCNCC
Comparison sign: =
pIC50: 6.60
--
Compound: CCNC/C=C\CNCCCCNCCCCNC/C=C\CNCC
Comparison sign: =
pIC50: 6.85
--
Compound: CCNCCCCNCCCCNCCCCNCCCCNC/C=C/CNCCCCNCCCCNCCCCNCCCCNCC
Comparison sign: =
pIC50: 7.05
--
Compound: CCNCCCNC/C=C\CNCCCNCC
Comparison sign: =
pIC50: 6.60
--
Compound: CCNCCCNCC1CCC1CNCCCNCC (stereo not drawn)
Comparison sign: ≤
pIC50: 7.00
--
Compound: CCNCCCCNC[C@H]1C[C@@H]1CNCCCCNC[C@H]1C[C@@H]1CNCCCCNCC
Comparison sign: =
pIC50: 6.92
--
Compound: CCNC/C=C\CNCCCCNCCCCNCCCCNCC
Comparison sign: =
pIC50: 6.60
--
Compound: CCNCCCNCC#CCNCCCNCC
Comparison sign: <
pIC50: 4.52
--
Compound: CCNCCCNCc1ccccc1CNCCCNCC
Comparison sign: <
pIC50: 4.52
